# pIC50 values compiled below
Target: Protein farnesyltransferase (Homo sapiens, UniProt P49354+P49356)
Experiment: Concentration required to displace 50% of a radiolabeled farnesyltransferase inhibitor from FPTase in cultured Ha-Ras transformed RAT1 cells
Type: functional, cell-based
Reminder that pIC50 means the negative base-10 logarithm of the concentration expressed in mol/L.

# example entries with known answers
| Smiles Notation | pIC50 |
| --- | --- |
| N#Cc1ccc(Cn2cncc2CN2CCN(c3cccc(Cl)c3)C(=O)C2)cc1Oc1ccc(OCc2ccccc2)cc1 | 6.51 |
| N#Cc1ccc(Cn2cncc2CN2CCN(c3cccc(Cl)c3)C(=O)C2)cc1Oc1ccc2ccccc2c1 | 7.32 |
| N#Cc1ccc(Cn2cncc2CN2CCN(c3cccc(Cl)c3)C(=O)C2)cc1Oc1ccc(Cl)cc1 | 6.46 |

Consider the record given below.
Short answer on Protein farnesyltransferase (Homo sapiens, UniProt P49354+P49356) for "N#Cc1ccc(Cn2cncc2CN2CCN(c3cccc(Cl)c3)C(=O)C2)cc1Oc1cccc(Cl)c1" , pIC50: 7.03
